Tested on: KM12
Run description: NCI tumour cell line growth inhibition, 48 h
Active and inactive are the calls of the source. Rule as the data show it: active = GI50 up to about 1.1 µM and inactive = higher.
Outcome (select one): y (active), n (inactive)

Called result for O=C1C2C(C(=O)N1c1ccccc1)C1([N+](=O)[O-])C=C3c4ccccc4N(C(=O)c4ccccc4)C32C2C(=O)N(c3ccccc3)C(=O)C21 (stereo not drawn)
n

I would be grateful if you could indicate the recorded call for "c1ccc(N/N=C2\NN=C(c3ccccc3)CS2)cc1" .
n

How did this test come out for CC(C)=CC(O)C(C(O)CCC1(C)OCCO1)S(=O)(=O)c1ccccc1 (stereo not drawn) ?
n

Please share the test call associated with "O=C(c1cccc2ccccc12)C1S(=O)(=O)OCCOS1(=O)=O" .
n

Outcome? "CCN(c1n[n+]2c(-c3ccccc3)csc2s1)c1n[n+]2c(-c3ccccc3)csc2s1"
n

What call does the record list for O=C(CC(=O)Nc1ccccc1Cl)NNC(c1cc(/N=N/c2ccc(Br)cc2)ccc1O)P(O)O (stereo not drawn) ?
n

What is the recorded call for this compound in the test? Oc1c(C2=NNC(c3ccc(Cl)cc3Cl)C2)ccc2ccccc12 (stereo not drawn)
n

Give the logged outcome of this assay for the following compound: "CN(C)CN1C(=O)/C(=N\n2c(S)nnc2-c2ccncc2)c2ccccc21"
n

// return assay outcome for C=C1C(=O)OC2C1CC[C@H](C)C1(O)C(O)CC(=O)[C@@]21C (stereo partly drawn)
n

Fill in: this test's call for "O=C1c2cccc3cccc(c23)C(=O)N1O" is ___
n

Entry CC(NC(=O)C(OC(=O)C(C)NC(=O)OC(C)(C)C)C(C)C)C(=O)OC(C(=O)O)C(C)C (stereo not drawn) : call = ?
n

What did this assay record as the result for "CCN(CC)CSc1nc2ccccc2[nH]1" ?
n

Dear colleague, could you share the recorded outcome for "COc1ccc2c(c1O)[C@@]13CCCC=C1[C@@H](C2)[N+](C)(C)CC3" when you have a moment?
n

Returns: the outcome recorded for "COc1ccc(C(=O)/C=C/S/C(=N/C#N)SC)cc1" in this assay.
n

In this assay, the call recorded for CCCCCCCCCCCC(=O)C1=C(O)CCC(O)C1=O (stereo not drawn) was what?
n

Given "Cc1c(NC(=S)N/N=C\C(=N/NC(=S)Nc2c(C)n(C)n(-c3ccccc3)c2=O)c2ccccc2)c(=O)n(-c2ccccc2)n1C" , state the outcome it received in this test.
n

What did this assay record as the result for "Cc1cc(C)c(S(=O)(=O)N(CCCCCCN)OCCCN)c(C)c1" ?
n

Assay result, entry C=CCN1C(N)=C(C#N)C(C#N)(C#N)C1CCC (stereo not drawn) — outcome?
n

// param item: "COC(=O)c1c[nH]c2nc(N3CCOCC3)nn2c1=O" ; yields the recorded call
n

For "C\C=C/C=C/C=C/C(=O)O" , which call appears in the assay record?
n

Any idea what this test logged for COc1cc2c(c(OC)c1OC)-c1ccc(OC)c(=O)cc1C(NC(=O)COc1ccccc1)CC2 (stereo not drawn) ?
y

Could you kindly confirm the outcome this assay logged for "CC(C)(C)c1ccc(O)c(CN(Cc2cc(C(C)(C)C)ccc2O)C2CCCCC2)c1" ?
n

Which result was noted for this compound in the test: "CC(=O)CC(=O)N(CCN(C(=O)CC(C)=O)c1ccccc1)c1ccccc1"
n

So what was the verdict on CN(C)CCCOC(=O)C(c1ccccc1)C1(O)CCSCC1 (stereo not drawn) in this test?
n

Each compound tested received a call. Report the one for O=C(NNc1ccc([N+](=O)[O-])cc1)C1OC(CO)C(O)C1O (stereo not drawn) .
n

Field: outcome | Entry: CC1CCC2C(C(=O)O[C@H]3C4CCO[C@@H](OC5OC(CO)C(O)C(O)C5O)C4[C@@]4(CO)O[C@@H]34)=CO[C@@H](OC3OC(CO)C(O)C(O)C3O)C12 (stereo partly drawn)
n

Hello, I am checking results. What call was entered for CC(=O)OC1CC2C(=O)CC1(C)C2(C)C (stereo not drawn) ?
n

Which outcome did this test record for the compound "O=C1NC(=O)C(c2c[nH]c3ccccc23)=C1c1cnc[nH]1" ?
n
